System: 935938-334-R-J1-PDC spheroids with HUVEC/MSC, viability;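 note: compound exposure lasted seven days before viability was read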
test-name: Anticancer human tumor 935938-334-R-J1-PDC patient-derived small intestine adenocarcinoma cell line growth inhibition [PI3K]
experimental-parameters: second compound 10 µM; first compound 0.00316 µM; hits give low values
Mark criterion met for viability, T/C under 60%, criterion not met if at or over.

compound="Cn1ncnc1[C@H]1c2n[nH]c(=O)c3cc(F)cc(c23)N[C@@H]1c1ccc(F)cc1 + CC(Nc1ncnc2nc[nH]c12)c1cc2cccc(Cl)c2c(=O)n1-c1ccccc1" assigned_category="criterion not met"
compound="CC(=O)c1c(C)c2cnc(Nc3ccc(N4CCNCC4)cn3)nc2n(C2CCCC2)c1=O + CC(Nc1ncnc2nc[nH]c12)c1cc2cccc(Cl)c2c(=O)n1-c1ccccc1" assigned_category="criterion not met"
compound="CCN1CCN(Cc2ccc(Nc3ncc(F)c(-c4cc(F)c5nc(C)n(C(C)C)c5c4)n3)nc2)CC1 + Cc1nc(NC(=O)N2CCCC2C(N)=O)sc1-c1ccnc(C(C)(C)C(F)(F)F)c1" assigned_category="criterion met"
compound="Cn1ncnc1[C@H]1c2n[nH]c(=O)c3cc(F)cc(c23)N[C@@H]1c1ccc(F)cc1 + Cc1nc(NC(=O)N2CCCC2C(N)=O)sc1-c1ccnc(C(C)(C)C(F)(F)F)c1" assigned_category="criterion met"
compound="CC(=O)c1c(C)c2cnc(Nc3ccc(N4CCNCC4)cn3)nc2n(C2CCCC2)c1=O + Cc1nc(NC(=O)N2CCCC2C(N)=O)sc1-c1ccnc(C(C)(C)C(F)(F)F)c1" assigned_category="criterion met"
